experimental.system: P2X7 receptor (Homo sapiens (Human), UniProt Q99572)
Sequence (Q99572 whole entry): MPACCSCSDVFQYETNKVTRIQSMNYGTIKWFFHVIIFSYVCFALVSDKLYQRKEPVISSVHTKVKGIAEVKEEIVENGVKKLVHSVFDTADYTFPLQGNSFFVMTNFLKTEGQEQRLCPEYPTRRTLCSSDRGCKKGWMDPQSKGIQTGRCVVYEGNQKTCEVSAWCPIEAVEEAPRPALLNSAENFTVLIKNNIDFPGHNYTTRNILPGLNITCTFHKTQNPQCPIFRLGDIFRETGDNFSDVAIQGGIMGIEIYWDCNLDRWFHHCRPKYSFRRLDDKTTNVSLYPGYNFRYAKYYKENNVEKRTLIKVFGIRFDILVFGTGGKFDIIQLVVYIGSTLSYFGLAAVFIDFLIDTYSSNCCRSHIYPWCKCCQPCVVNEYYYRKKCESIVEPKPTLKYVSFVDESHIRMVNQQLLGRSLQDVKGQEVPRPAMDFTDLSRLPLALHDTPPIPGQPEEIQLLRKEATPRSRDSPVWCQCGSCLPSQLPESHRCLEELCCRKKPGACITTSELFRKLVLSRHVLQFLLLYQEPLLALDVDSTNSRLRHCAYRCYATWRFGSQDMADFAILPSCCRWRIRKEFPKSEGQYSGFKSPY
procedure.details: P2X7 FLIPR assay: antagonism of BzATP response in 293 HEK cells stably expressing P2X7 receptor
applied.conditions: FLIPR fluorescence (Fluo-4), agonist BzATP, 293 HEK cells stably transfected with P2X7 receptor
metric.name: IC50 (nM)

{"columns": ["molecule", "metric.name", "data.value"],
 "data": [
  ["Cc1ncc(C(CNC(=O)c2ccccc2Cl)N2CCCC(F)(F)C2)cn1 (single isomer, unassigned; (-)) [(−)2-chloro-N-[2-(3,3-difluoro-1-piperidyl)-2-(2-methylpyrim]", "IC50", 28],
  ["COc1ccc(C(CNC(=O)c2cccc(C)c2C)N2CCOCC2)cc1 (stereo not drawn)", "IC50", 47],
  ["O=C(NCC(c1ccc(C(F)F)nc1)N1CCC(F)(F)CC1)c1ccccc1Cl (single isomer, unassigned; (+)) [(+)2-chloro-N-[2-[6-(difluoromethyl)-3-pyridyl]-2-(4,4-diflu]", "IC50", 9],
  ["O=C(NCC(c1cnc(C(F)(F)F)nc1)N1CCC(F)(F)CC1)c1ccc(Cl)cc1Cl (single isomer, unassigned; (-)) [(−)2,4-dichloro-N-[2-(4,4-difluoro-1-piperidyl)-2-[2-(triflu]", "IC50", 6.4],
  ["O=C(NCC(c1cnc(C(F)(F)F)nc1)N1CCC(F)(F)CC1)c1c(Cl)cc(F)cc1Cl (single isomer, unassigned; (-)) [(−)2,6-dichloro-N-[2-(4,4-difluoro-1-piperidyl)-2-[2-(triflu]", "IC50", 15],
  ["O=C(NCC(c1cnc(C(F)(F)F)nc1)N1CCOCC1)c1cccc(F)c1Cl (stereo not drawn)", "IC50", 11]
]}
